A collection of molecules and their measured melting point

COc1ncccc1NC[C@@H]1[C@@H](c2ccc(S(N)(=O)=O)cc2)C1(C)C [Example 42]: 98 to 100 °C
COc1ccc(F)cc1NC[C@@H]1[C@@H](c2ccc(S(N)(=O)=O)cc2)C1(C)C [Example 23]: 164 to 166 °C
CC1(C)[C@H](CNc2cc(Cl)ccc2C(F)(F)F)[C@H]1c1ccc(S(N)(=O)=O)cc1 [Example 45]: 124 to 126 °C

Proceed to the following item.
Cc1ccc(Cl)cc1NC[C@@H]1[C@@H](c2ccc(S(N)(=O)=O)cc2)C1(C)C [Example 22] yielded melting point of 60 to 62 °C

Cited source: patent US9790173B2
